Source: PubChem BioAssay (NCI)

Listing: growth inhibition of selected compounds
# Experiment Notes: NCI Yeast Anticancer Drug Screen. Data for the rad50 strain (AID 155);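 further: 0% = growth of vehicle-only cultures of the same strain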
# Run Conditions: S. cerevisiae rad50 strain growth inhibition; at 5.0 µM (retest, dose inferred, filed as 0.5); active compounds read high
This is part of a sample that, as a whole, favours compounds with a hit. Of some 79,000 tested, about 15% had one in any assay.
Enter your answer as a number in %; do not include the unit.

Record request: growth inhibition value, item COC(=O)[C@@]12OC[C@]34[C@H]([C@@H](O)[C@@H]1O)[C@@]1(C)CC(=O)C(OC(=O)CC(=O)OC5=C(C)[C@@H]6C[C@H]7OC(=O)[C@H](OC(=O)/C=C(\C)C(C)C)[C@H]8[C@]9(C(=O)OC)OC[C@]78[C@H]([C@@H](O)[C@@H]9O)[C@@]6(C)CC5=O)=C(C)[C@@H]1C[C@H]3OC(=O)[C@H](OC(=O)/C=C(\C)C(C)C)[C@@H]24
45

Then this compound: O=C(O)c1ccccc1C(c1ccccc1)c1ccccc1
15

Same for COC(=O)CNC(=O)C(F)(F)F
-160

Also check O=C(CCc1ccccc1)COC(=O)c1ccc([N+](=O)[O-])cc1
-13

Same question for C/C(=N/NC(=O)Nc1ccc(N=Nc2ccccc2)cc1)c1cccnc1 please.
-10

What about this compound? CC(C)OC(=O)c1ccc(CCC2=CC(=O)C=CC2=O)cc1
34
